These data points were gathered from patent US4985428A.

# Tested on: electroshock (ECS) amnesia in rat
# ASSAY: electroshock (ECS) amnesia test in rat
# Assay type: in vivo
# MEASUREMENT PARAMETERS: ip, male rats, intraperitoneal, 30 minutes before training session, dose improving retention time by 50% of Δt vs ECS control, read-out: ED50 i.p.
Mark 1.0 for ED50 under 200 µmol/kg, 0.0 if at or over.

> print(dat)
                                   compound  discrete.label
1   O=C(O)CCCNC(=O)c1cc(Cl)no1 [Compound 2]             1.0
2  O=C(NCCCC(=O)N1CCCC1)c1cc(Br)no1 [Compound 8]             1.0
3   COc1cc(C(=O)NCCCC(=O)O)on1 [Compound 3]             0.0
4   O=C(O)CCCNC(=O)c1cc(Br)no1 [Compound 1]             1.0
5  NC(=O)CN1CCCC1=O [Piracetam, 2-pyrrolidinoneacetamide, reference compound]             0.0
6  CCOC(=O)CNC(=O)CCCNC(=O)c1cc(Br)no1 [Compound 12]             1.0
7  COc1ccc(C(=O)N2CCCC2=O)cc1 [Aniracetam, 1-(4-methoxy-benzoyl)-2-pyrrolidinone, reference compound]             0.0
